ASSAY_PROCEDURE: Microsomal bioavailability (Table 2)
Type: in vitro ADME
RUN_CONDITIONS: read-out: Microsomal bioavailability F (%)
Measured Microsomal bioavailability (predicted from microsomes), listed per entry.

Worked examples follow.
- SMILES_TEXT: "Oc1ccc(C2(c3ccccc3F)CCC(F)(F)CC2)cc1"
  ENDPOINT_RESULT: "4.2%"
- SMILES_TEXT: "Oc1ccc(C2(c3ccccc3Cl)CCCCC2)cc1"
  ENDPOINT_RESULT: "2%"
- SMILES_TEXT: "Oc1ccc(C2(c3ccccc3)CCCCC2)cc1"
  ENDPOINT_RESULT: "0%"

[ask] Answer with the recorded Microsomal bioavailability (predicted from microsomes) for the compound listed here: "COc1ccc(C2(c3ccccc3F)CCC(F)(F)CC2)cc1"
[reply] 19.6%
